# Experimental target: human Class I PI3 kinase γ (Homo sapiens (Human), UniProt P48736)
# Sequence (P48736 whole entry, canonical isoform): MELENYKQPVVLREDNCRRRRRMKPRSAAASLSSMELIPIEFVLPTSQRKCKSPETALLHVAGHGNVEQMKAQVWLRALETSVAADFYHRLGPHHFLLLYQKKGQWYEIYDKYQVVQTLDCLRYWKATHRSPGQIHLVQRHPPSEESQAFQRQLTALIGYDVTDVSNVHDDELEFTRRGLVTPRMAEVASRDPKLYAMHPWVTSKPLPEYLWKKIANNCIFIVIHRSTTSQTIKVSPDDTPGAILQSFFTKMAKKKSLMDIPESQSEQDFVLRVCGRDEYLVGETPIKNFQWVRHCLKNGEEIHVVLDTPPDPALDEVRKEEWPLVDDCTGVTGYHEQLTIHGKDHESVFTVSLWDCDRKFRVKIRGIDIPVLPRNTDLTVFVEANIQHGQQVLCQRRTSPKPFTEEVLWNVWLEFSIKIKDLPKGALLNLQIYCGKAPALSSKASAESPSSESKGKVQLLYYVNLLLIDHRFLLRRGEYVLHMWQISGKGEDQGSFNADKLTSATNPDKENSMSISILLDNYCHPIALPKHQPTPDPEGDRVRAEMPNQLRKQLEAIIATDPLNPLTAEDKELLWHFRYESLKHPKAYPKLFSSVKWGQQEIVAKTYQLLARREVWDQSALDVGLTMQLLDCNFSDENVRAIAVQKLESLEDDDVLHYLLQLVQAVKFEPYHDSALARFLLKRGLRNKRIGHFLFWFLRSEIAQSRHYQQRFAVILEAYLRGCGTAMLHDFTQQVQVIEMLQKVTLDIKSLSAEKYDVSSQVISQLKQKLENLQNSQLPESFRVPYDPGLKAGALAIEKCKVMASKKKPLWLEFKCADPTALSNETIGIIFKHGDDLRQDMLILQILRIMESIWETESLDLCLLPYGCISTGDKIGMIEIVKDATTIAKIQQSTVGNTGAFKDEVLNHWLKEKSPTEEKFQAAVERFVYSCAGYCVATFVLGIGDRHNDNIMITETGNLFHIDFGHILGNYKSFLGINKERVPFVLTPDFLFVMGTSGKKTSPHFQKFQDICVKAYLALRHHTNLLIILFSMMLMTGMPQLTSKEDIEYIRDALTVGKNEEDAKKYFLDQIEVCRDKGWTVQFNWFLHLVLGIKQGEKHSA
# Protocol: PI3-Kinase Promega ADP-Glo Max assay, γ isoform
# Test settings: 40 nM kinase, 3 mM ATP, 500 uM diC8-PtdInsP; read-out: Promega γ PI3K IC50
pIC50: −log10 of the molar value.
For each of the compounds below, state its pIC50.

Indicate the recorded pIC50 value for this compound: C[C@H](NC(=O)c1c(N)nn2cccnc12)c1cc2cccc(CC(=O)C(C)(C)C)c2c(=O)n1-c1ccccc1
5.00 to 6.00

Indicate the recorded pIC50 value for this compound: C[C@H](NC(=O)c1c(N)nn2cccnc12)c1cc2cccc(Cl)c2c(=O)n1CCc1c[nH]cn1
5.00 to 6.00

Indicate the recorded pIC50 value for this compound: C[C@H](NC(=O)c1c(N)ncn2ccnc12)c1cc2cccc(Cl)c2c(=O)n1-c1ccccc1
7.00 to 8.00

Indicate the recorded pIC50 value for this compound: C[C@H](NC(=O)c1c(N)nn2cccnc12)c1cc2cccc(-c3cnn(CC(F)(F)F)c3)c2c(=O)n1-c1ccccc1
6.30 to 7.00

* * *

For each of the molecules below, state its IC50.
# Experimental target: human Class I PI3 kinase γ (Homo sapiens (Human), UniProt P48736)
# Protocol: PI3-Kinase Promega ADP-Glo Max assay, γ isoform
# Test settings: 40 nM kinase, 3 mM ATP, 500 uM diC8-PtdInsP; read-out: Promega γ PI3K IC50

Look up and report IC50, with human Class I PI3 kinase γ (Homo sapiens (Human), UniProt P48736) as system, for C[C@H](NC(=O)c1c(N)nn2cccnc12)c1cc2cccc(Cl)c2c(=O)n1CCc1nnn(C)n1 [Compound 56]
1000 to 10000 nM

Look up and report IC50, with human Class I PI3 kinase γ (Homo sapiens (Human), UniProt P48736) as system, for C[C@H](NC(=O)c1c(N)nn2cccnc12)c1nc2ccc(Cl)cc2c(=O)n1-c1ccccc1 [Compound 88]
1000 to 10000 nM

Look up and report IC50, with human Class I PI3 kinase γ (Homo sapiens (Human), UniProt P48736) as system, for C[C@H](NC(=O)c1c(N)nn2cccnc12)c1nc2cccc(N3CCOCC3)c2c(=O)n1-c1ccccc1 [Compound 90]
1000 to 10000 nM

Look up and report IC50, with human Class I PI3 kinase γ (Homo sapiens (Human), UniProt P48736) as system, for C[C@H](NC(=O)c1c(N)nn2cccnc12)c1cc2cccc(Cl)c2c(=O)n1CCc1ccccc1 [Compound 15]
1000 to 10000 nM

Look up and report IC50, with human Class I PI3 kinase γ (Homo sapiens (Human), UniProt P48736) as system, for C[C@H](NC(=O)c1c(N)nn2cccnc12)c1cc2cccc(Cl)c2c(=O)n1-c1cccc(S(C)(=O)=O)c1 [Compound 77]
500 to 1000 nM

Look up and report IC50, with human Class I PI3 kinase γ (Homo sapiens (Human), UniProt P48736) as system, for C[C@H](NC(=O)c1nccnc1N)c1nc2cccc(Cl)c2c(=O)n1-c1ccc(F)cc1 [Compound 46]
100 to 500 nM

Look up and report IC50, with human Class I PI3 kinase γ (Homo sapiens (Human), UniProt P48736) as system, for C[C@H](NC(=O)c1c(N)nn2cccnc12)c1cc2cccc(Cl)c2c(=O)n1-c1ccc(NS(C)(=O)=O)cc1 [Compound 81]
1000 to 10000 nM

Look up and report IC50, with human Class I PI3 kinase γ (Homo sapiens (Human), UniProt P48736) as system, for C[C@H](NC(=O)c1c(N)nn2cccnc12)c1cc2cccc(OCC(F)(F)F)c2c(=O)n1-c1ccccc1 [Compound 86]
1000 to 10000 nM

Look up and report IC50, with human Class I PI3 kinase γ (Homo sapiens (Human), UniProt P48736) as system, for C[C@H](NC(=O)c1c(N)nn2cccnc12)c1cc2cccc(Cl)c2c(=O)n1CCCS(C)(=O)=O [Compound 57]
100 to 500 nM

Look up and report IC50, with human Class I PI3 kinase γ (Homo sapiens (Human), UniProt P48736) as system, for C[C@H](NC(=O)c1c(N)nn2cccnc12)c1cc2cccc(Cl)c2c(=O)n1-c1ccccc1S(C)(=O)=O [Compound 83]
1000 to 10000 nM

* * *

# Experimental target: human Class I PI3 kinase δ (Homo sapiens (Human))
# Sequence (O00329 whole entry, canonical isoform): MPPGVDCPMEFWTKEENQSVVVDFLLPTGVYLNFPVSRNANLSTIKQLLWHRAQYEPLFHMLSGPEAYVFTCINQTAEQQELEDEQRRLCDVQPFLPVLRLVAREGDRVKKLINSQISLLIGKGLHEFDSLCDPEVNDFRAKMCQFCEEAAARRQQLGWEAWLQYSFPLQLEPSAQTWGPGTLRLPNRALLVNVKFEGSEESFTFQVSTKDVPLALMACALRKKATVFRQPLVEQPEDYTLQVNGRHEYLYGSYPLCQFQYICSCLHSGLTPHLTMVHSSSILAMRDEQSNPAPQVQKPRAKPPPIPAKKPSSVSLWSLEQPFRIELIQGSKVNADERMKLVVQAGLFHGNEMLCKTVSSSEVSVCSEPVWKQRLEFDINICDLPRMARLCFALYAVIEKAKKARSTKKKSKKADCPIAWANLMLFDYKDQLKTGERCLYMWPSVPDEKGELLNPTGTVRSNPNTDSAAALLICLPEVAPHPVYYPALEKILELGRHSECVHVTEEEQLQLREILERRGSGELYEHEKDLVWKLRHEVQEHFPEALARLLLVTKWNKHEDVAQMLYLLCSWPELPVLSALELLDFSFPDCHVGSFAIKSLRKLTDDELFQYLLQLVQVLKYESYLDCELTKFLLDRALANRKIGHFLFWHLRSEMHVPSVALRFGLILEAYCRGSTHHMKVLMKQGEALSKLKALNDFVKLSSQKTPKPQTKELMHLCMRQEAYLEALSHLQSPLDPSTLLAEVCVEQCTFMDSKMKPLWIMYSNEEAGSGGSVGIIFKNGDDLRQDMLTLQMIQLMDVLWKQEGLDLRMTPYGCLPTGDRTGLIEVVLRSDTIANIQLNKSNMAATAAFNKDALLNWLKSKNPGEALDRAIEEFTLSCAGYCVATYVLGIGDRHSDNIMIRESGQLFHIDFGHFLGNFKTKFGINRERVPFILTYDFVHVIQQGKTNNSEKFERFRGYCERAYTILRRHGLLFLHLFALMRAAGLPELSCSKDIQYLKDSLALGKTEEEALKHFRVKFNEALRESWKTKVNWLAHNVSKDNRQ
# Sequence (P27986 whole entry partner, canonical isoform): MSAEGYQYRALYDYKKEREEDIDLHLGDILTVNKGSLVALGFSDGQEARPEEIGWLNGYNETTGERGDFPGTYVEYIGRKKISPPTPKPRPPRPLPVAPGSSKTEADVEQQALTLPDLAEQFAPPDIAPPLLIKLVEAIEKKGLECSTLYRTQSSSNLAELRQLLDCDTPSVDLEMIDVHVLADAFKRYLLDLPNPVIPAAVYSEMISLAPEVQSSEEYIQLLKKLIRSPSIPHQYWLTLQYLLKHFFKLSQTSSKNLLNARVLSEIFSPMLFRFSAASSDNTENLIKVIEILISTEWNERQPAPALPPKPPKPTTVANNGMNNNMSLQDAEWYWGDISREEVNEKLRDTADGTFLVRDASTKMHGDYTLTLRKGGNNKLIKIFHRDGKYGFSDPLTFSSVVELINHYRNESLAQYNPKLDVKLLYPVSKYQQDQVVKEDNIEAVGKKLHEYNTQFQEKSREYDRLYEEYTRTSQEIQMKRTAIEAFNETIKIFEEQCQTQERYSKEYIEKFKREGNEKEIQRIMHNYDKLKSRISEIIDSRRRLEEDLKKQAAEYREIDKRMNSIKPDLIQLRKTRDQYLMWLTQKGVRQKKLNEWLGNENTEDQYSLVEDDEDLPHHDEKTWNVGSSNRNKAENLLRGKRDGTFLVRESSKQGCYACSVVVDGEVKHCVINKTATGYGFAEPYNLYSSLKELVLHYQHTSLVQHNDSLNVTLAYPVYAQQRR
# Protocol: PI3-Kinase Promega ADP-Glo Max assay, δ isoform
# Test settings: 20 nM kinase, 3 mM ATP, 500 uM diC8-PtdInsP; read-out: Promega δ PI3K IC50
pIC50: −log10 of the molar value.
For each of the molecules below, state its pIC50.

Indicate the recorded pIC50 value for this molecule: C[C@H](NC(=O)c1nccnc1N)c1nc2cccc(Cl)c2c(=O)n1-c1ccc(F)cc1
5.00 to 6.00

Indicate the recorded pIC50 value for this molecule: CCS(=O)(=O)NCCn1c([C@H](C)NC(=O)c2c(N)nn3cccnc23)cc2cccc(Cl)c2c1=O
6.30 to 7.00

Indicate the recorded pIC50 value for this molecule: C[C@H](NC(=O)c1c(N)nn2cccnc12)c1nc2cccc(Cl)c2c(=O)n1-c1ccc(F)c(F)c1
5.00 to 6.00

Indicate the recorded pIC50 value for this molecule: C[C@H](NC(=O)c1c(N)nn2cccnc12)c1cc2cccc(Cl)c2c(=O)n1CCc1ncn[nH]1
5.00 to 6.00

* * *

# Experimental target: human Class I PI3 kinase γ (Homo sapiens (Human), UniProt P48736)
# Protocol: PI3-Kinase Promega ADP-Glo Max assay, γ isoform
# Test settings: 40 nM kinase, 3 mM ATP, 500 uM diC8-PtdInsP; read-out: Promega γ PI3K IC50
Endpoint name: IC50

Indicate the recorded IC50 value for this molecule: C[C@H](NC(=O)c1c(N)nn2cccnc12)c1cc2cccc(Cl)c2c(=O)n1C1CCC1
1000 to 10000 nM

Indicate the recorded IC50 value for this molecule: CCn1cc(-c2cccc3cc([C@H](C)NC(=O)c4c(N)nn5cccnc45)n(-c4ccccc4)c(=O)c23)cn1
100 to 500 nM

Indicate the recorded IC50 value for this molecule: C[C@H](NC(=O)c1c(N)nn2cccnc12)c1cc2cccc(Cl)c2c(=O)n1CCCNS(C)(=O)=O
10 to 100 nM

Indicate the recorded IC50 value for this molecule: C[C@H](NC(=O)c1c(N)nn2cccnc12)c1cc2cccc(Cl)c2c(=O)n1-c1ccccc1O
10 to 100 nM

* * *

For each of the molecules below, state its pIC50.
# Experimental target: human Class I PI3 kinase α (Homo sapiens (Human))
# Sequence (P42336 whole entry, canonical isoform): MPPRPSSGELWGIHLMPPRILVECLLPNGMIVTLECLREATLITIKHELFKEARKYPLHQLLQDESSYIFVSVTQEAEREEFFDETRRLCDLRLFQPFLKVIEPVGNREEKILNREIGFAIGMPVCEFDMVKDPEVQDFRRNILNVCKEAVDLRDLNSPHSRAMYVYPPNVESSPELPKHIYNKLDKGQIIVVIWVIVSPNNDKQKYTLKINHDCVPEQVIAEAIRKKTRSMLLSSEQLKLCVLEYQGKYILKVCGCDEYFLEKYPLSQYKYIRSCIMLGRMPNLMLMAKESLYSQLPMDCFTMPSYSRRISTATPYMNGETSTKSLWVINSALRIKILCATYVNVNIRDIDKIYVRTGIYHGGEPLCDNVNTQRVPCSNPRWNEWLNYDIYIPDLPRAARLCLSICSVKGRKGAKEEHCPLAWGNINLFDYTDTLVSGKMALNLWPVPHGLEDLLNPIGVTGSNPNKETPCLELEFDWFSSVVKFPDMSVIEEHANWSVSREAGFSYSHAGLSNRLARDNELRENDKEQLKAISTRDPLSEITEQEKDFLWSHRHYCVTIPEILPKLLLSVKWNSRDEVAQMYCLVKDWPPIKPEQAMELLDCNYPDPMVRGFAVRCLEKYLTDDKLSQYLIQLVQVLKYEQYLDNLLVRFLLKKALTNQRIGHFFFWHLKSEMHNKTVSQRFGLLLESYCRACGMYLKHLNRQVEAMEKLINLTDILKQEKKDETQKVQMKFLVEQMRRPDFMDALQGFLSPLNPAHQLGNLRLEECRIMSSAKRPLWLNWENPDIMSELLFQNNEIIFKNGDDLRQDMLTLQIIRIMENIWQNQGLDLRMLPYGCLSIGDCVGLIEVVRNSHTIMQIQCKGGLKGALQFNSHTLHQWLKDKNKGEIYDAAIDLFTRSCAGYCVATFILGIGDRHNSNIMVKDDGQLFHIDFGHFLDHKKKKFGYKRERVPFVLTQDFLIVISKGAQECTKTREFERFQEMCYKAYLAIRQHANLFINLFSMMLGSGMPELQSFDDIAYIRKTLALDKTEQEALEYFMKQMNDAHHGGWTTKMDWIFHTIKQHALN
# Sequence (P27986 whole entry partner, canonical isoform): as the sequence (P27986 whole entry partner, canonical isoform) above
# Protocol: PI3-Kinase Promega ADP-Glo Max assay, α isoform
# Test settings: 20 nM kinase, 3 mM ATP, 500 uM diC8-PtdInsP; read-out: Promega α PI3K IC50
pIC50: −log10 of the molar value.

Look up and report pIC50, with human Class I PI3 kinase α (Homo sapiens (Human)) as system, for C[C@H](NC(=O)c1c(N)nn2cccnc12)c1cc2cccc(Cl)c2c(=O)n1CCc1noc(C(C)(C)C)n1
5.00 to 6.00

Look up and report pIC50, with human Class I PI3 kinase α (Homo sapiens (Human)) as system, for C[C@H](NC(=O)c1c(N)nn2cccnc12)c1cc2cccc(Cl)c2c(=O)n1CCS(=O)(=O)N(C)C
6.00 to 6.30

Look up and report pIC50, with human Class I PI3 kinase α (Homo sapiens (Human)) as system, for C[C@H](NC(=O)c1c(N)nn2cccnc12)c1nc2c(Cl)cccc2c(=O)n1-c1ccccc1
5.00 to 6.00

Look up and report pIC50, with human Class I PI3 kinase α (Homo sapiens (Human)) as system, for C[C@H](NC(=O)c1c(N)nn2cccnc12)c1nc2cccc(Cl)c2c(=O)n1-c1ccc(F)cc1
5.00 to 6.00

Look up and report pIC50, with human Class I PI3 kinase α (Homo sapiens (Human)) as system, for C[C@H](NC(=O)c1c(N)nn2cccnc12)c1cc2cccc(Cl)c2c(=O)n1CCc1nnnn1C
5.00 to 6.00

Look up and report pIC50, with human Class I PI3 kinase α (Homo sapiens (Human)) as system, for CCS(=O)(=O)NCCn1c([C@H](C)NC(=O)c2c(N)nn3cccnc23)cc2cccc(Cl)c2c1=O
5.00 to 6.00

Look up and report pIC50, with human Class I PI3 kinase α (Homo sapiens (Human)) as system, for C[C@H](NC(=O)c1c(N)nn2cccnc12)c1cc2cccc(Cl)c2c(=O)n1C1CC(NS(C)(=O)=O)C1 (some centres unmarked)
5.00 to 6.00

Look up and report pIC50, with human Class I PI3 kinase α (Homo sapiens (Human)) as system, for C[C@H](NC(=O)c1c(N)nn2cccnc12)c1cc2cccc(Cl)c2c(=O)n1-c1ccc(O)cc1
5.00 to 6.00

Look up and report pIC50, with human Class I PI3 kinase α (Homo sapiens (Human)) as system, for C[C@H](NC(=O)c1c(N)nn2cccnc12)c1cc2cccc(Cl)c2c(=O)n1-c1cccc(S(C)(=O)=O)c1
5.00 to 6.00

Look up and report pIC50, with human Class I PI3 kinase α (Homo sapiens (Human)) as system, for C[C@H](NC(=O)c1c(N)nn2cccnc12)c1cc2cccc(Cl)c2c(=O)n1-c1ccc(S(C)(=O)=O)cc1
5.00 to 6.00

Look up and report pIC50, with human Class I PI3 kinase α (Homo sapiens (Human)) as system, for C[C@H](NC(=O)c1c(N)nn2cccnc12)c1cc2cccc(Cl)c2c(=O)n1Cc1nnn[nH]1
5.00 to 6.00

Look up and report pIC50, with human Class I PI3 kinase α (Homo sapiens (Human)) as system, for C[C@H](NC(=O)c1c(N)nn2cccnc12)c1cc2cccc(Cl)c2c(=O)n1CCS(N)(=O)=O
5.00 to 6.00

Look up and report pIC50, with human Class I PI3 kinase α (Homo sapiens (Human)) as system, for CC(C)C(=O)Cc1cccc2cc([C@H](C)NC(=O)c3c(N)nn4cccnc34)n(-c3ccccc3)c(=O)c12
5.00 to 6.00

Look up and report pIC50, with human Class I PI3 kinase α (Homo sapiens (Human)) as system, for C[C@H](NC(=O)c1c(N)nn2cccnc12)c1cc2cccc(Cl)c2c(=O)n1-c1ccccc1S(C)(=O)=O
5.00 to 6.00

Look up and report pIC50, with human Class I PI3 kinase α (Homo sapiens (Human)) as system, for C[C@H](NC(=O)c1nc(C2CC2)cnc1N)c1cc2cccc(Cl)c2c(=O)n1-c1ccccc1
5.00 to 6.00

Look up and report pIC50, with human Class I PI3 kinase α (Homo sapiens (Human)) as system, for CCn1cc(-c2cccc3cc([C@H](C)NC(=O)c4c(N)nn5cccnc45)n(-c4ccccc4)c(=O)c23)cn1
5.00 to 6.00

Look up and report pIC50, with human Class I PI3 kinase α (Homo sapiens (Human)) as system, for Cc1cccc(-n2c([C@H](C)NC(=O)c3c(N)nn4cccnc34)cc3cccc(Cl)c3c2=O)c1
5.00 to 6.00
